B1: Pituitary-specific positive transcription factor 1, residues 130 to 198; numbered along this chain, P28069 (parent)
chain: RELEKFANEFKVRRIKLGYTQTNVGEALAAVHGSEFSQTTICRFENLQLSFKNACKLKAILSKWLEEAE

variants of: B1; assay: abundance fitness (aPCA) (normalised: wild type 0, dead -1); higher = more abundant; growth selection in yeast, the domain comes from the species named; settings: Homo sapiens
quantity measured: abundance fitness
Just the number.

Answered examples (4):
   sequence_change  quantitative_readout
0             A29K                -0.202
1             S50K                -0.182
2              A7H                -0.973
3             V31L                -0.058

Bench note: what abundance fitness did V31R show?
-0.053
